Where these numbers come from: the supplement of paper PMC10567573

# Test details: protein stability index of a GFP-peptide fusion (GPS, HEK-293T) (PSI 1-6); higher = more stable;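 note: 24-mer peptide tiles fused after GFP, lentivirally expressed, FACS-sorted into six equal bins by GFP/DsRed ratio, decoded by Illumina sequencing, PSI is the read-weighted mean bin number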
# Condition description: treatment: DMSO; c terminus: a fixed tail appended
Recorded protein stability index by entry
# print the numeric value only

Seq string: NGKEFNNWFNVTGSDKCVFLKNTE [CD69]
protein stability index: 3.2
--
Seq string: EGFHNYHHSFPYDYSASEYRWHIN [SCD]
protein stability index: 2.37
--
Seq string: ITVKNLRMAIGYLHSHRHLYPEGI [POMT2]
protein stability index: 3.02
--
Seq string: ELDNPMQQKWTKPARAGSEVEWTE [C2CD2L]
protein stability index: 4.1
--
Seq string: SEEAPGGTELIQTPLASSTDHQTP [HDAC6]
protein stability index: 5.49

Tell me protein stability index reported for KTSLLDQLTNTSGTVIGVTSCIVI [NETO1] 3.14

Complete the entry with protein stability index for LPAAEFHGLWDSLVYDVEVKSHLL [TRIP13] 2.43

Using known records, supply protein stability index for DRVLQWERIDCQGIPPSSKDKLGV [KLHDC2] 4.14

Supply recorded protein stability index for NNEAFMNQEITKAFHVRRTNRVKE [RHOBTB2] here. 4.44

====

# Test details: protein stability index of a GFP-peptide fusion (GPS, HEK-293T) (PSI 1-6); higher = more stable
# Condition description: treatment: DMSO; c terminus: a fixed tail appended
Quantity: protein stability index
No unit in the answer, only the number.

Check out these entries, answers already filled in.
Seq string: NSKPQDLTDAYGPPSNFLEIDIFN [SNX12]
Value observed: 3.63

Seq string: IPLEQGSSCNGPGQTTGHPYYLRS [FAN1]
Value observed: 5.05

Seq string: LDPASLAWLTEEEPEPAEVTSTSQ [DDIT3]
Value observed: 5.51

Seq string: LKPESSQQPGQDALAVKAGHGYDS [ZBED1]
Value observed: 5.12

Seq string: TDLKTLCCEFLEGCIAAENCIGIR [GAN]
Value observed: 2.35

// fetch protein stability index given entry GKRYCRGKVLGKGGFAKCYEMTDL [PLK2] 2.79

Consider the sequence ETNRLGRLINHSKCGNCQTKLHDI [KMT5A] . State its measured protein stability index. 2.57

State its protein stability index for this sequence: CSVFPATDAPEQFISQVTVLKYFS [PLK2] 2.49

Kindly indicate its recorded protein stability index. Item: RGTQYSSLDSLDGLSLTDESDSCV [PSD2] 5.26

====

# Test details: protein stability index of a GFP-peptide fusion (GPS, HEK-293T) (PSI 1-6); higher = more stable
# Condition description: treatment: MLN4924 1 uM, 8 h; c terminus: a fixed tail appended
The label depends only on protein stability index: 1.0 if it is at least 3, 0.0 if it is smaller.

Examples with answers:
Seq string: RIHERLVAGSLAGAIAQSSIYPME [SLC25A25]
Discrete label: 0.0
--
Seq string: NQYATCRLCGRQVSRGPGVNVGTT [ZBED2]
Discrete label: 0.0
--
Seq string: AASSYSFSDLNSTRGDADMYDLPK [EMD]
Discrete label: 1.0
--
Seq string: DQDLRTYLDKAPPPGLPAETIKDL [CDK4]
Discrete label: 1.0
--
Seq string: EDHFPLLFSEASECMLLVFGIDVK [MAGEA10]
Discrete label: 0.0
--
Seq string: DHMVRMHLYPADFRFDKPKKSRSP [ZNF511]
Discrete label: 1.0

# bool: protein stability index of EEEEEEEEEEDDLSELPPLEDMGQ [FKBP8] >= 3 1.0

Is protein stability index at least 3? Consider AQRHRGSAKDGGPQPPDAPQLVSS [PLEKHN1] 1.0

====

# Test details: protein stability index of a GFP-peptide fusion (GPS, HEK-293T) (PSI 1-6); higher = more stable
# Condition description: treatment: DMSO; c terminus: a fixed tail appended
Quantity: protein stability index
Simply state the number, no unit and no words.

// known answers, use as guide
Seq string: PDDPEHLAARRQWRDECLMRLAKL [CRYL1]
protein stability index: 3.66

Seq string: PKKDLEDGEVPQHAGKKGKLSEHL [BRD3]
protein stability index: 5.18

Seq string: KERLLLSAAVPAGQTYVDAGYEVD [CHIT1]
protein stability index: 4.67

Seq string: GFTTATEFHQRRSEIIQITTGSKE [RAD51]
protein stability index: 4.22

Seq string: RTVGFEEQASAFQEQEIDGKSLLL [SAMD13]
protein stability index: 4.55

Seq string: TSASLLNAGLSHTEYQIVTDPGDV [SLC2A12]
protein stability index: 4.42

Seq string: DGSDFQHRERVAMHYQMSVTLKYE [JAGN1]
protein stability index: 2.62

Seq string: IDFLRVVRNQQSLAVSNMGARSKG [PTPN9]
protein stability index: 2.76

Return the recorded protein stability index value; entry: WKEGRPRVEESGSKKEGKRQGPKE [PBXIP1] 5.28

Read the entry EEKSFWEMEKSFREEEKTFWKKYR [CCDC70] and write its reported protein stability index. 4.18

Annotate the sequence LEEEIERNKESPVFAPVYFPEELH [HMOX1] with its measured protein stability index. 5.32

Consider the sequence VYKSLLLLAYLIRNGSERVVTSAR [CLINT1] and give its recorded protein stability index. 2.57

# return recorded protein stability index for entry SDSVIMTGSYNNFFRMFDRNTKRD [PPP2R2B] 3.55

====

# Test details: protein stability index of a GFP-peptide fusion (GPS, HEK-293T) (PSI 1-6); higher = more stable
# Condition description: treatment: DMSO; c terminus: a fixed tail appended
Listed here: items and their measured protein stability index.
API note: the answer field is a bare number with no unit suffix.

Seq string: TRRTLKGHGNKVLCMDWCKDKRRI [GNB5]
protein stability index: 3.02

Consider the additional sequence presented here.
Read off the recorded protein stability index for GTKLIFRRRPRQKEAGLSQSHDDL [C2CD2L] 4.03

====

# Test details: protein stability index of a GFP-peptide fusion (GPS, HEK-293T) (PSI 1-6); higher = more stable
# Condition description: treatment: DMSO; c terminus: a fixed tail appended
Quantity: protein stability index
Quick one: just the number, no unit, thanks!

A selection of reference data follows.
Seq string: MLERIKHEKTVDIYGHVTLMRAQR [PTPRD]
protein stability index: 1.73
//
Seq string: AEQLRIELNAEKFKNSLLQKELKK [WEE1]
protein stability index: 3.88

Please report the measured protein stability index for SDSEANGFAERRIDKFGFIVGSQG [TBC1D10A] 4.14

Return protein stability index (reported value) for this sequence: FYSAEIICAIEYLHSKEIVYRDLK [PRKX] 2.96

Annotate the sequence ARSESVLLHMPQPVNPELTAGPIT [TRIM43] with its measured protein stability index. 4.31

Annotate the sequence PKKSAPSAVARSNSWMGSQGPMSQ [RBMY1A1] with its measured protein stability index. 4.08

Answer with the recorded protein stability index for the sequence listed here: RHQSIFKSNGFFHGISIPEPEDME [CDKL4] 3.58

Give the value of protein stability index reported for the following: EEVDEDGSGTIDFEEFLVMMVRQM [TNNC2] 3.52

Quickly give me recorded protein stability index for ASSPYISSVQSYPGSASLAQSRLE [DLX1] 3.92

Answer with reported protein stability index of TMELRNYFSLYCLHQETQLIHVYL [SNX8] 3.41

Give me measured protein stability index, please, for this sequence: DLQLTVGGAQASGTLIGVGQSVTA [MFSD9] 3.52

Please look at this sequence and report its protein stability index: LFCEVSVVQDSVNISGHTNTNTLK [SPOPL] 2.76

Please indicate protein stability index recorded for SGTDAEETILNAFKMLDPDGKGKI [MYL5] 4.51

Give protein stability index for RNQYEALVETNRREVEQWFATQTE [KRT33B] 4.37

Could you please provide reported protein stability index for LLESLNQQRLQGQLCDVSIRVQGR [ZBTB22] ? Thanks! 2.59

Read the entry LLSQKKTISFLGCAIQMFSFLFLG [OR10K2] and write its reported protein stability index. 2.5

====

# Test details: protein stability index of a GFP-peptide fusion (GPS, HEK-293T) (PSI 1-6); higher = more stable
# Condition description: treatment: MLN4924 1 uM, 8 h; c terminus: a fixed tail appended
protein stability index listing for selected sequences.
Number, no unit, nothing else.

Example results:
Seq string: MTEEVIVIAKWDYTAQQDQELDIK [NCK2]
protein stability index: 2.97

Seq string: LLSQKKTISFLGCAIQMFSFLFLG [OR10K2]
protein stability index: 2.41

Seq string: LSVCPLEGSREHAFQITGVWDASR [PLEKHN1]
protein stability index: 3.38

Seq string: CDECGKIFSQSSALILHQRIHSGK [ZNF396]
protein stability index: 5.51

Seq string: TRKQAAKKVAPLMAKAIRDYKGRF [ELOA2]
protein stability index: 3.39

Please give measured protein stability index of the following entry: VLNEEGICTQKCALNWTDIPVAME [VPS39] 3.39

In one line, give reported protein stability index of the entry PAEESKPAPSPHEEPCSPGLLQDQ [CBY2] . 5.14

Provide one value: measured protein stability index of APGSASSSKVSGVLKKLAQSRRTA [YJU2B] 3.87

Hello, please tell me recorded protein stability index for this one: VTGHTNIVDFLTHHAQTSKTERIN [FEM1C] 3.54

Complete the entry with protein stability index for RVYLATDDPSLLKEAKTKYPNYEF [FUT8] 2.9
